Assay: Phase I study CXR1002-001: plasma pharmacokinetics (LC-MS/MS)
Type: in vivo, human
Conditions: human, plasma, oral, 600 mg, Patient 023, 600 mg, person, plasma, 2 hr; read-out: Concentration
metric: concentration at 2 h (µM)
Report only the number, with the unit µM understood.

Data request, read-out concentration at 2 h, for O=C(O)C(F)(F)C(F)(F)C(F)(F)C(F)(F)C(F)(F)C(F)(F)C(F)(F)F [CXR1002]
208

====

Test: Phase I study CXR1002-001: plasma pharmacokinetics (LC-MS/MS)
Type: in vivo, human
Settings: human, plasma, oral, 600 mg, Patient 022, 600 mg, person, plasma, 4 hr; read-out: Concentration
metric: concentration at 4 h (µM)
Report only the number, with the unit µM understood.

Data request, read-out concentration at 4 h, for O=C(O)C(F)(F)C(F)(F)C(F)(F)C(F)(F)C(F)(F)C(F)(F)C(F)(F)F [CXR1002]
199

====

Experiment: Phase I study CXR1002-001: plasma pharmacokinetics (LC-MS/MS)
Type: in vivo, human
Conditions: human, plasma, oral, 1200 mg, Patient 033, 1200 mg, person, plasma, 840 hr (Day 36); read-out: Concentration
metric: concentration at 840 h (µM)
Report only the number, with the unit µM understood.

Data request, read-out concentration at 840 h, for O=C(O)C(F)(F)C(F)(F)C(F)(F)C(F)(F)C(F)(F)C(F)(F)C(F)(F)F [CXR1002]
1040

====

Test: Phase I study CXR1002-001: plasma pharmacokinetics (LC-MS/MS)
Assay type: in vivo, human
Conditions: human, plasma, oral, 450 mg, Patient 017 Dose 450 mg; 4 hr; read-out: Concentration
metric: concentration at 4 h (µM)
Report only the number, with the unit µM understood.

Data request, read-out concentration at 4 h, for `O=C(O)C(F)(F)C(F)(F)C(F)(F)C(F)(F)C(F)(F)C(F)(F)C(F)(F)F`
163

====

Test: Phase I study CXR1002-001: plasma pharmacokinetics (LC-MS/MS)
Format: in vivo, human
Details: human, plasma, oral, 950 mg, Patient 031, 950 mg, person, plasma, 24 hr (Day 2); read-out: Concentration
metric: concentration at 24 h

Data request, read-out concentration at 24 h, for O=C(O)C(F)(F)C(F)(F)C(F)(F)C(F)(F)C(F)(F)C(F)(F)C(F)(F)F [CXR1002]
348 µM

====

Assay: Phase I study CXR1002-001: plasma pharmacokinetics (LC-MS/MS)
Format: in vivo, human
Conditions: human, plasma, oral, 950 mg, Patient 031, 950 mg, person, plasma, 338 hr; read-out: Concentration
metric: concentration at 338 h (µM)
Report only the number, with the unit µM understood.

Data request, read-out concentration at 338 h, for O=C(O)C(F)(F)C(F)(F)C(F)(F)C(F)(F)C(F)(F)C(F)(F)C(F)(F)F [CXR1002]
668

====

Experiment: Phase I study CXR1002-001: plasma pharmacokinetics (LC-MS/MS)
Format: in vivo, human
Conditions: human, plasma, oral, 450 mg, Patient 015 Dose 450 mg; 844 hr; read-out: Concentration
metric: concentration at 844 h (µM)
Report only the number, with the unit µM understood.

Data request, read-out concentration at 844 h, for `O=C(O)C(F)(F)C(F)(F)C(F)(F)C(F)(F)C(F)(F)C(F)(F)C(F)(F)F`
801

====

Assay: Phase I study CXR1002-001: plasma pharmacokinetics (LC-MS/MS)
Assay type: in vivo, human
Settings: human, plasma, oral, 100 mg, Patient 006 Dose 100 mg; 192 hr (Day 9); read-out: Concentration
metric: concentration at 192 hr (µM)
Report only the number, with the unit µM understood.

Data request, read-out concentration at 192 hr, for O=C(O)C(F)(F)C(F)(F)C(F)(F)C(F)(F)C(F)(F)C(F)(F)C(F)(F)F [CXR1002]
44.7

====

Test: Phase I study CXR1002-001: plasma pharmacokinetics (LC-MS/MS)
Format: in vivo, human
Settings: human, plasma, oral, 450 mg, Patient 016 Dose 450 mg; 336 hr (Day 15); read-out: Concentration
metric: concentration at 336 h (µM)
Report only the number, with the unit µM understood.

Data request, read-out concentration at 336 h, for `O=C(O)C(F)(F)C(F)(F)C(F)(F)C(F)(F)C(F)(F)C(F)(F)C(F)(F)F`
287

====

Assay: Phase I study CXR1002-001: plasma pharmacokinetics (LC-MS/MS)
Type: in vivo, human
Conditions: human, plasma, oral, 200 mg, Patient 010 Dose 200 mg; 24 hr (Day 2); read-out: Concentration
metric: concentration at 24 h (µM)
Report only the number, with the unit µM understood.

Data request, read-out concentration at 24 h, for O=C(O)C(F)(F)C(F)(F)C(F)(F)C(F)(F)C(F)(F)C(F)(F)C(F)(F)F [CXR1002]
58.6

====

Assay: Phase I study CXR1002-001: plasma pharmacokinetics (LC-MS/MS)
Assay type: in vivo, human
Details: human, plasma, oral, 600 mg, Patient 021, 600 mg, person, plasma, 172 hr; read-out: Concentration
metric: concentration at 172 h (µM)
Report only the number, with the unit µM understood.

Data request, read-out concentration at 172 h, for `O=C(O)C(F)(F)C(F)(F)C(F)(F)C(F)(F)C(F)(F)C(F)(F)C(F)(F)F`
451

====

Experiment: Phase I study CXR1002-001: plasma pharmacokinetics (LC-MS/MS)
Format: in vivo, human
Details: human, plasma, po, 1200 mg, Patient 036, 1200 mg weekly oral dose, Time 842 hr; read-out: Concentration (plasma level)
Excerpt: PK samples, PD (fasting) samples, blood glucose, and blood triglyceride samples, were taken over a 6-week period. Dose limiting toxicity (DLT) will be based on the toxicity assessments over the first 3-week period of the repeat dosing schedule. […]
metric: concentration at 842 h (µM)
Report only the number, with the unit µM understood.

Data request, read-out concentration at 842 h, for O=C(O)C(F)(F)C(F)(F)C(F)(F)C(F)(F)C(F)(F)C(F)(F)C(F)(F)F [CXR1002]
1250

====

Experiment: Phase I study CXR1002-001: plasma pharmacokinetics (LC-MS/MS)
Assay type: in vivo, human
Conditions: human, plasma, oral, 450 mg, Patient 016 Dose 450 mg; 508 hr; read-out: Concentration
metric: concentration at 508 h (µM)
Report only the number, with the unit µM understood.

Data request, read-out concentration at 508 h, for O=C(O)C(F)(F)C(F)(F)C(F)(F)C(F)(F)C(F)(F)C(F)(F)C(F)(F)F [CXR1002]
698

====

Experiment: Phase I study CXR1002-001: plasma pharmacokinetics (LC-MS/MS)
Type: in vivo, human
Settings: human, plasma, oral, 50 mg, Patient 004 Dose 50 mg; 4 hr; read-out: Concentration
metric: concentration at 4 hr (µM)
Report only the number, with the unit µM understood.

Data request, read-out concentration at 4 hr, for `O=C(O)C(F)(F)C(F)(F)C(F)(F)C(F)(F)C(F)(F)C(F)(F)C(F)(F)F`
19.3

====

Experiment: Phase I study CXR1002-001: plasma pharmacokinetics (LC-MS/MS)
Format: in vivo, human
Details: human, plasma, oral, 450 mg, Patient 016 Dose 450 mg; 339 hr; read-out: Concentration
metric: concentration at 339 h (µM)
Report only the number, with the unit µM understood.

Data request, read-out concentration at 339 h, for O=C(O)C(F)(F)C(F)(F)C(F)(F)C(F)(F)C(F)(F)C(F)(F)C(F)(F)F [CXR1002]
454

====

Assay: Phase I study CXR1002-001: plasma pharmacokinetics (LC-MS/MS)
Format: in vivo, human
Conditions: human, plasma, po, 1200 mg, Patient 038, 1200 mg weekly oral dose, Time 168 hr (Day 8); read-out: Concentration (plasma level)
metric: concentration at 168 h (µM)
Report only the number, with the unit µM understood.

Data request, read-out concentration at 168 h, for `O=C(O)C(F)(F)C(F)(F)C(F)(F)C(F)(F)C(F)(F)C(F)(F)C(F)(F)F`
268

====

Experiment: Phase I study CXR1002-001: plasma pharmacokinetics (LC-MS/MS)
Format: in vivo, human
Settings: human, plasma, oral, 200 mg, Patient 009 Dose 200 mg; 340 hr; read-out: Concentration
metric: concentration at 340 h

Data request, read-out concentration at 340 h, for `O=C(O)C(F)(F)C(F)(F)C(F)(F)C(F)(F)C(F)(F)C(F)(F)C(F)(F)F`
153 µM

====

Test: Phase I study CXR1002-001: plasma pharmacokinetics (LC-MS/MS)
Type: in vivo, human
Settings: human, plasma, oral, 50 mg, Patient 004 Dose 50 mg; 508 hr; read-out: Concentration
metric: concentration at 508 h

Data request, read-out concentration at 508 h, for `O=C(O)C(F)(F)C(F)(F)C(F)(F)C(F)(F)C(F)(F)C(F)(F)C(F)(F)F`
47.9 µM
